# TARGET: p38α (Homo sapiens, UniProt Q16539)
# Sequence (Q16539 whole entry): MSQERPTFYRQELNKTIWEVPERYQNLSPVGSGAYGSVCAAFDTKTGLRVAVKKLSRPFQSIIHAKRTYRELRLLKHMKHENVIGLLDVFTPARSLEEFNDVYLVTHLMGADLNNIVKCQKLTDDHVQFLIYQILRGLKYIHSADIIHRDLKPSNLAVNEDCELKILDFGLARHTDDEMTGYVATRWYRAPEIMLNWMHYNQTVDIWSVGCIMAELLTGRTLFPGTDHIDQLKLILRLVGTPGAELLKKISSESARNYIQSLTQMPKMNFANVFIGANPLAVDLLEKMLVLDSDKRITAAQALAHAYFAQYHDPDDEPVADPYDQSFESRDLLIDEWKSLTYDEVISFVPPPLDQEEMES
# TEST_DESCRIPTION: Kinase assay (phosphorylation of ATF2 by activated p38α, ELISA readout at 405 nm)
# SETTINGS: activated p38α, ATF2 substrate, 100 μM ATP, 37° C., 1 hour; read-out: IC50 p 38
Mark t for IC50 under 20 µM, f if at or over.

API: query returns whether the molecule falls strictly under 20 µM in IC50. Query: Fc1ccc(-c2c(-c3ccncc3)noc2C2CC2)cc1
f

API: query returns whether the molecule falls strictly under 20 µM in IC50. Query: Cc1onc(-c2ccncc2)c1-c1ccc(F)cc1
f

API: query returns whether the molecule falls strictly under 20 µM in IC50. Query: Fc1ccc(-c2c(-c3ccncc3)noc2-c2ccco2)cc1
f

API: query returns whether the molecule falls strictly under 20 µM in IC50. Query: CN(C)Cc1onc(-c2ccncc2)c1-c1ccc(F)cc1
t

API: query returns whether the molecule falls strictly under 20 µM in IC50. Query: CC(=O)Nc1cc(-c2onc(-c3ccncc3)c2-c2ccc(F)cc2)ccn1
f

API: query returns whether the molecule falls strictly under 20 µM in IC50. Query: COc1ccc(-c2onc(-c3ccncc3)c2-c2ccc(F)cc2)cc1
t

API: query returns whether the molecule falls strictly under 20 µM in IC50. Query: CN(C)c1ccc(-c2onc(-c3ccncc3)c2-c2ccc(F)cc2)cc1
f

API: query returns whether the molecule falls strictly under 20 µM in IC50. Query: Fc1ccc(-c2c(-c3ccncc3)noc2N2CCCCC2)cc1
t

API: query returns whether the molecule falls strictly under 20 µM in IC50. Query: Fc1ccc(-c2c(-c3ccncc3)noc2-c2ccccc2)cc1
f

Where do these numbers come from? They come from patent US20060128759A1.
